Tested on: CEM cells HIV-1 protection, formazan growth assay
Assay: NCI AIDS Antiviral Assay
Where a SMILES comes first, the peptide text is derived from it. Bridges are numbered along the chain shown (N, C = ends). [ ]: non-standard residue; d: D form. The star is where a group is joined. ξ: configuration not given here. X16 = O=C(/C=C/C=C/C=C/C=C/C=C/C(=O)*)NC1=C(O)CCC1=O; NMeA = CN[C@@H](C)C(=O)O; ξF = NC(Cc1ccccc1)C(=O)O; ξA = CC(N)C(=O)O
parameter: EC50

>  <compound>
CC1NC(=O)[C@H](C)N(C)C(=O)[C@@H]2CCCN2C(=O)[C@@H](NC(=O)C(Cc2ccccc2)NC(=O)/C=C/C=C/C=C/C=C/C=C/C(=O)NC2=C(O)CCC2=O)COC(=O)[C@@H]2CCCN2C1=O (some centres not stated) (X16-[ξF]SP[NMeA][ξA]P; ester 2-C)

>  <target system>
CEM cells HIV-1 protection, formazan growth assay

>  <assay result>
> 151 µM

$$$$
>  <compound>
CCN(Cc1cccc(S(=O)(=O)O)c1)c1ccc(C(=C2C=CC(=[N+](CC)Cc3cccc(S(=O)(=O)O)c3)C=C2)c2ccc(S(=O)(=O)O)cc2)cc1

>  <target system>
CEM cells HIV-1 protection, formazan growth assay

>  <assay result>
> 112 µM

$$$$
>  <compound>
O=c1c(Nc2ccccc2)cn(CCOc2ccc(Cl)cc2)c(=O)n1CCOc1ccc(Cl)cc1

>  <target system>
CEM cells HIV-1 protection, formazan growth assay

>  <assay result>
> 200 µM

$$$$
>  <compound>
COc1cccc2c(Nc3ccc(S(=O)(=O)NC(C)=O)cc3)c3ccc([N+](=O)[O-])cc3nc12

>  <target system>
CEM cells HIV-1 protection, formazan growth assay

>  <assay result>
> 141 µM

$$$$
>  <compound>
O=C1C(Cl)N(c2cccc(Cl)c2)C1c1c[nH]c2ccccc12 (configuration not stated)

>  <target system>
CEM cells HIV-1 protection, formazan growth assay

>  <assay result>
> 282 µM

$$$$
>  <compound>
CC(=O)Nc1ccc(C(=O)NN2C(=O)CSC2c2ccccc2)cc1 (configuration not stated)

>  <target system>
CEM cells HIV-1 protection, formazan growth assay

>  <assay result>
> 72.4 µM

$$$$
>  <compound>
O=C(Nc1ccc(Cl)c(Cl)c1)n1ncc2ccc([N+](=O)[O-])cc21

>  <target system>
CEM cells HIV-1 protection, formazan growth assay

>  <assay result>
> 200 µM

$$$$
